src = patent US20110178104A1

System: UFH
EXPERIMENT_SUMMARY: FXa amidolytic assay (Example 10), UFH
COND: read-out: Heparin FXa uM EC50; UFH 0.03 units/mL; human antithrombin, bovine Factor Xa
Starred links: 1 amine or outer side, 2 acyl side, 3 side chain; linkers in the order of their positions; H or OH if unused. Non-standard residues stand in square brackets, D forms with d. Residues, ends and D or L forms follow the SMILES beside them. *: point of attachment. NH(3-CONH2-4-OMe-phenyl) = COc1ccc(N*)cc1C(N)=O; 3Abz(6-OMe) = COc1ccc(N[*:1])cc1C(=O)[*:2]
Please respond with reported EC50 for every item in the list.
Unit µM implied. Number only.

Find the recorded EC50 belonging to COc1cc(OC)c(C(=O)N[C@H]2CC[C@@H](NC(=O)c3cc(C(=O)NCCN(C)C)c(OCCCCCN)cc3OCCCCCN)CC2)cc1C(=O)N[C@H]1CC[C@@H](NC(=O)c2cc(C(=O)NCCN(C)C)c(OCCCCCN)cc2OCCCCCN)CC1 [Compound 363] and report it.
0.134

Find the recorded EC50 belonging to COc1ccc(NC(=O)[C@H](CCCCN)NC(=O)c2cc(NC(=O)[C@H](CCCCN)NC(=O)c3cc(NC(=O)[C@H](CCCCN)NC(=O)c4cc(NC(=O)[C@H](CCCCN)NC(=O)c5ccccc5)ccc4OC)ccc3OC)ccc2OC)cc1C(N)=O [Compound 353] and report it.
0.198

Find the recorded EC50 belonging to COc1ccc(NC(=O)[C@H](CCCCN)NC(=O)c2cc(NC(=O)[C@H](CCCCN)NC(=O)c3cc(NC(=O)[C@H](CCCCN)NC(=O)c4cc(NC(=O)[C@H](CCCCN)NC(=O)[C@@H](N)Cc5c[nH]c6ccccc56)ccc4OC)ccc3OC)ccc2OC)cc1C(N)=O [Compound 351] (H-WK[3Abz(6-OMe)]K[3Abz(6-OMe)]K[3Abz(6-OMe)]K-{NH(3-CONH2-4-OMe-phenyl)}) and report it.
0.194

Find the recorded EC50 belonging to COc1cc(OC)c(C(=O)N[C@H]2CC[C@H](NC(=O)c3ccc(OCCCCCN)cc3OCCCCCN)CC2)cc1C(=O)N[C@H]1CC[C@H](NC(=O)c2ccc(OCCCCCN)cc2OCCCCCN)CC1 [Compound 335] and report it.
0.151

----------
Test system: unfractionated heparin (UFH)
EXPERIMENT_SUMMARY: aPTT clotting assay, UFH 0.2 U/mL in plasma (Example 7)
Assay type: biochemical
COND: UFH 0.2 U/mL in plasma
Protocol: aPTT clotting Assay. Unfractionated heparin was mixed with plasma at a final concentration of 0.2 U/mL. […] The ACL Elite Hemostasis analyzer (Beckman Coulter™) was used to add aPTT reagent (HemosIL SynthASil) to supplemented plasma. Clotting was initiated by addition of CaCl2 and time to clot was recorded.
MEASURED_ENDPOINT: UFH (aPTT) EC50 (µg/mL)
Unit µg/mL implied. Number only.

Find the recorded UFH (aPTT) EC50 belonging to COc1ccc(NC(=O)[C@H](CCCCN)NC(=O)c2cc(NC(=O)[C@H](CCCCN)NC(=O)c3cc(NC(=O)[C@H](CCCCN)NC(=O)c4cc(NC(=O)[C@@H](N)CCCCN)ccc4OC)ccc3OC)ccc2OC)cc1C(=O)N[C@@H](C)C(=O)O and report it.
2.23

Find the recorded UFH (aPTT) EC50 belonging to COc1ccc(NC(=O)[C@H](CCCCN)NC(=O)c2cc(NC(=O)[C@H](CCCCN)NC(=O)c3cc(NC(=O)[C@H](CCCCN)NC(=O)c4cc(NC(=O)[C@@H](N)CCCCN)ccc4OC)ccc3OC)ccc2OC)cc1C(=O)O and report it.
3.59

Find the recorded UFH (aPTT) EC50 belonging to COc1ccc(NC(=O)[C@H](CCCCN)NC(=O)c2cc(NC(=O)[C@@H](N)CCCCN)ccc2OC)cc1C(=O)N[C@@H](CCCCN)C(=O)Nc1ccc(OC)c(C(=O)N[C@@H](CCCCN)C(=O)Nc2ccc(OC)c(C(=O)N[C@H](C)C(=O)O)c2)c1 and report it.
2.74

Find the recorded UFH (aPTT) EC50 belonging to COc1ccc(NC(=O)[C@H](CCCNC(=N)N)NC(=O)c2cc(NC(=O)[C@H](CCCNC(=N)N)NC(=O)c3cc(NC(=O)[C@H](CCCNC(=N)N)NC(=O)c4cc(NC(=O)[C@H](C)NC(=O)CCCCNC(=N)N)ccc4OC)ccc3OC)ccc2OC)cc1C(N)=O and report it.
7.17

----------
EXPERIMENT_SUMMARY: Cytotoxicity colorimetric assay, HepG2
Assay type: cell-based, human
COND: human, HepG2 cells, one hour in serum-free media
Please respond with reported EC50 at 1 h for every item in the list.
Unit µg/mL implied. Number only.

Find the recorded EC50 at 1 h belonging to COc1cc(OC)c(C(=O)N[C@H]2CC[C@H](NC(=O)c3ccc(OCCCCCNC(=N)N)cc3OCCCCCNC(=N)N)CC2)cc1C(=O)N[C@H]1CC[C@H](NC(=O)c2ccc(OCCCCCNC(=N)N)cc2OCCCCCNC(=N)N)CC1 [Compound 336] and report it.
505

Find the recorded EC50 at 1 h belonging to COc1cc(OC)c(C(=O)N[C@H]2CC[C@H](NC(=O)c3cc(C(=O)N[C@H]4CC[C@H](NC(=O)c5cc(C(=O)NCCN)c(OC)cc5OC)CC4)c(OCC(N)=O)cc3OC)CC2)cc1C(=O)NCCN [Compound 390] and report it.
892

----------
EXPERIMENT_SUMMARY: Cytotoxicity colorimetric assay, NIH/3T3
Assay type: cell-based, mouse
COND: mouse, NIH/3T3 cells, one hour in serum-free media
MEASURED_ENDPOINT: EC50 at 1 h (µg/mL)
Unit µg/mL implied. Number only.

Find the recorded EC50 at 1 h belonging to COc1ccc(NC(=O)[C@H](CCCCN)NC(=O)c2cc(NC(=O)[C@H](CCCCN)NC(=O)c3cc(NC(=O)[C@H](CCCCN)NC(=O)c4cc(NC(=O)[C@H](CCCCN)NC(=O)Cc5ccccc5)ccc4OC)ccc3OC)ccc2OC)cc1C(N)=O and report it.
52

Find the recorded EC50 at 1 h belonging to COc1ccc(NC(=O)[C@H](CCCCN)NC(=O)c2cc(NC(=O)[C@H](CCCCN)NC(=O)c3cc(NC(=O)[C@H](CCCCN)NC(=O)c4cc(NC(=O)[C@@H](N)CCCCN)ccc4OC)ccc3OC)ccc2OC)cc1C(=O)N[C@@H](Cc1c[nH]c2ccccc12)C(=O)O and report it.
838

----------
EXPERIMENT_SUMMARY: Cytotoxicity colorimetric assay, HepG2
Type: cell-based, human
COND: human, HepG2 cells, one hour in serum-free media
Starred links: 1 amine or outer side, 2 acyl side, 3 side chain; linkers in the order of their positions; H or OH if unused. Non-standard residues stand in square brackets, D forms with d. Residues, ends and D or L forms follow the SMILES beside them. *: point of attachment. NH(3-CONH2-4-OMe-phenyl) = COc1ccc(N*)cc1C(N)=O; 3Abz(6-OMe) = COc1ccc(N[*:1])cc1C(=O)[*:2]; X1 = O=C(O)COc1ccc(N[*:1])cc1C(=O)[*:2]
Please respond with reported log10 EC50 at 1 h for every item in the list.
Use the decimal logarithm of EC50 at 1 h (µg/mL).

Find the recorded log10 EC50 at 1 h belonging to COc1cc(OC)c(C(=O)N[C@H]2CC[C@H](NC(=O)c3ccc(OCCCCCN)cc3OCCCCCN)CC2)cc1C(=O)N[C@H]1CC[C@H](NC(=O)c2ccc(OCCCCCN)cc2OCCCCCN)CC1 and report it.
2.85

Find the recorded log10 EC50 at 1 h belonging to COc1ccc(NC(=O)[C@H](CCCCN)NC(=O)c2cc(NC(=O)[C@H](CCCCN)NC(=O)c3cc(NC(=O)[C@H](CCCCN)NC(=O)c4cc(NC(=O)[C@H](CCCCN)NC(=O)[C@@H](N)Cc5c[nH]c6ccccc56)ccc4OC)ccc3OC)ccc2OCC(=O)O)cc1C(N)=O [Compound 352] (H-WK[3Abz(6-OMe)]K[3Abz(6-OMe)]K[X1]K-{NH(3-CONH2-4-OMe-phenyl)}) and report it.
2.88

Find the recorded log10 EC50 at 1 h belonging to COc1cc(OC)c(C(=O)N[C@H]2CC[C@@H](NC(=O)c3ccc(OCCCCCNC(=N)N)cc3OCCCCCNC(=N)N)CC2)cc1C(=O)N[C@H]1CC[C@@H](NC(=O)c2ccc(OCCCCCNC(=N)N)cc2OCCCCCNC(=N)N)CC1 and report it.
1.91

Find the recorded log10 EC50 at 1 h belonging to COc1ccc(NC(=O)[C@H](CCCCN)NC(=O)c2cc(NC(=O)[C@H](CCCCN)NC(=O)c3cc(NC(=O)[C@H](CCCCN)NC(=O)c4cc(NC(=O)[C@@H](N)CCCCN)ccc4OC)ccc3OC)ccc2OC)cc1C(=O)N[C@@H](Cc1c[nH]c2ccccc12)C(=O)O and report it.
2.73

Find the recorded log10 EC50 at 1 h belonging to COc1ccc(NC(=O)[C@@H](CCCNC(=N)N)NC(=O)c2cc(NC(=O)[C@@H](CCCNC(=N)N)NC(=O)c3cc(NC(=O)[C@@H](CCCNC(=N)N)NC(=O)c4cc(NC(=O)[C@H](N)CCCNC(=N)N)ccc4OC)ccc3OC)ccc2OCC(=O)O)cc1C(=O)N[C@H](Cc1c[nH]c2ccccc12)C(N)=O and report it.
3.00
